molecular target: Proto-oncogene tyrosine-protein kinase Src (Homo sapiens) (UniProt P12931); assay: Inhibition of Src at 10 uM by HTRF assay relative to control
Sequence (P12931 2-536 limits assumed): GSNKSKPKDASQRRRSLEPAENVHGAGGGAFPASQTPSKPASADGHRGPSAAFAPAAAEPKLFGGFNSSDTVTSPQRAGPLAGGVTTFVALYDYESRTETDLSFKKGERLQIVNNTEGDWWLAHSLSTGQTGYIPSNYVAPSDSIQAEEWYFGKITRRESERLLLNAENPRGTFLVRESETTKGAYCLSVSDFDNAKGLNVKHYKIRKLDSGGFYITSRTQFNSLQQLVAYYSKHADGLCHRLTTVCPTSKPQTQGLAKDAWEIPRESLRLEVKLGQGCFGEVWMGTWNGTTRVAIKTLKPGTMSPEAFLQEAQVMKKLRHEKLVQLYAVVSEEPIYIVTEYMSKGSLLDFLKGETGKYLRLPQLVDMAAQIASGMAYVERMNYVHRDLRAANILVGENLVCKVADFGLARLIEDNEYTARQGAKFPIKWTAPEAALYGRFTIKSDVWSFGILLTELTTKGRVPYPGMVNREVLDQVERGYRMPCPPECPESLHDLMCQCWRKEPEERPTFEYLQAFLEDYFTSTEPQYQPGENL
MEASUREMENT_LABEL: inhibition (%)

P = Cc1cccc(N(C)c2cc(N3CCN(C(=O)Cc4c[nH]c5ccccc45)CC3)ncn2)c1
Q = Nc1nc(N2CCOCC2)cc(N2CCC(C(=O)NCc3cccs3)CC2)n1
Problem: Hi there! Just curious which has the higher inhibition between P and Q . // return label of chosen record
Solution: Q
(Q: 3%, P: 0%)

P = Cc1cccc(N(C)c2cc(Nc3cccc(C(=O)NCc4ccc(N(C)C)cc4)c3)ncn2)c1
Q = Cc1cccc(CN2CCN(c3cc(N(C)c4cccc(C)c4)ncn3)CC2)c1
R = O=C(COc1ccccc1)N1CCN(c2nccc(Nc3ccc4ncsc4c3)n2)CC1
Problem: Output the entries ranked by inhibition from maximum down to minimum. Please write the labels in the order that was asked for.
Solution: R, Q, P
(R: 13%, Q: 8%, P: 4%)

I = Cc1cccc(Oc2ccnc(N3CCC[C@H]3C(=O)NCCCn3ccnc3)n2)c1
II = COc1ccc(-c2noc(CN3CCN(c4cc(Nc5cccc(O)c5)ncn4)CC3)n2)cc1
Problem: Kindly identify the item with the lower inhibition figure among these two: I and II // return label of chosen record
Solution: I
(I: 0%, II: 3%)

A = Cc1cccc(Nc2nccc(Nc3cccc(C(=O)N(C)CCc4ccccn4)c3)n2)c1
B = COC[C@@H]1CCCN1C(=O)C1CCCN1c1cc(Nc2cccc(Br)c2)ncn1 (stereo not given in full)
C = CN(C)c1ccc(C(=O)N2CCN(c3ncnc4c3CN(Cc3ccccc3)CC4)CC2)c2ccccc12
Problem: Order the entries by their reported inhibition, beginning at the minimum. Please write the labels in the order that was asked for.
Solution: C, B, A
(C: 0%, B: 3%, A: 64%)

====

target: UniProtKB P17948; assay: Inhibition of FLT1 at 10 uM by HTRF assay relative to control
Sequence (P17948 whole entry): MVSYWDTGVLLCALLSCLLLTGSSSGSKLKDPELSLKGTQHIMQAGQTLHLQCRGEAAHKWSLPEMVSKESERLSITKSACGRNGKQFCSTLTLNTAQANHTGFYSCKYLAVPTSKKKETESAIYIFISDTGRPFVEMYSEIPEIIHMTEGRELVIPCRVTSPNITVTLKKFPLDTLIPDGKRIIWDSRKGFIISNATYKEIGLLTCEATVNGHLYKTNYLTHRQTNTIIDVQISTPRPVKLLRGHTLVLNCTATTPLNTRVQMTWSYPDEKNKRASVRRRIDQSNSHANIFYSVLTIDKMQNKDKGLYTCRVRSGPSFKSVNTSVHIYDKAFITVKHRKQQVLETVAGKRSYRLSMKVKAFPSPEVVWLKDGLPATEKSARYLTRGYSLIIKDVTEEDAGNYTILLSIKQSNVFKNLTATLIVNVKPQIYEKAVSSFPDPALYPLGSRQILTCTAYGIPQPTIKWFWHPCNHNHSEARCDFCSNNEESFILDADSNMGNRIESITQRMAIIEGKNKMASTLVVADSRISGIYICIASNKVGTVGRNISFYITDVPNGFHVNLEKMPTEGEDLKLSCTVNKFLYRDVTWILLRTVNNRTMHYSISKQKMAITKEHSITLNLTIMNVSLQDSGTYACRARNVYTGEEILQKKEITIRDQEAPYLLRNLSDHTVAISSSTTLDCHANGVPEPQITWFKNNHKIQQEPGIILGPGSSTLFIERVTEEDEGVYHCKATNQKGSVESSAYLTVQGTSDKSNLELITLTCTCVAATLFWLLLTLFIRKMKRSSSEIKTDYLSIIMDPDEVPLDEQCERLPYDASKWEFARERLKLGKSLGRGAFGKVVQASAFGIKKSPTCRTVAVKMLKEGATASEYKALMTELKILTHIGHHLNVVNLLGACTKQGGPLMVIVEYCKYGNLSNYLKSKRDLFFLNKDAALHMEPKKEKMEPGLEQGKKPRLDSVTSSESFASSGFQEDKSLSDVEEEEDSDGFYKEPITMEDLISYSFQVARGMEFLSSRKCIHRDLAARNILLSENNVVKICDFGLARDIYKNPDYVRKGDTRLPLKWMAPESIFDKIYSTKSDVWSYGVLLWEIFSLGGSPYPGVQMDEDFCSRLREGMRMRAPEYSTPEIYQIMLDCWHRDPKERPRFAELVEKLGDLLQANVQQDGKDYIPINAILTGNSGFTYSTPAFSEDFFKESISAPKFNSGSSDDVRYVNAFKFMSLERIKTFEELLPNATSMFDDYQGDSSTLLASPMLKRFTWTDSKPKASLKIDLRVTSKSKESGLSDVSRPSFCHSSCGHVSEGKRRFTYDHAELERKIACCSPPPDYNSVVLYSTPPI
MEASUREMENT_LABEL: inhibition (%)

| COMPOUND | inhibition (%) |
| --- | --- |
| O=C(NCc1ccncc1)c1cccc(Nc2cc(Nc3cccc(Br)c3)ncn2)c1 | 32 |
| Cc1cccc(N(C)c2cc(Nc3cccc(C(=O)NCc4ccncc4)c3)ncn2)c1 | 0 |
| Cc1ccc(CN2CCN(c3nccc(C(C#N)c4ccccn4)n3)CC2)cc1 (centres undefined) | 0 |

A = CN(C)CC(C)(C)CNC(=O)C1CCN(c2cc(N3CCOCC3)nc(N)n2)CC1
B = Cc1cccc(N(C)c2cc(Nc3cccc(C(=O)N4CCCC5CCCCC54)c3)ncn2)c1 (centres undefined)
C = Cc1cccc(N(C)c2cc(Nc3cccc(C(=O)N(CC(C)C)CC(C)C)c3)ncn2)c1
D = Cc1cccc(Nc2ncnc3c2CN(C(=O)c2ccc(N(C)C)c4ccccc24)CC3)c1
E = Cc1cccc(N(C)c2cc(Nc3ccc(CC(=O)Nc4ccc5ncsc5c4)cc3)ncn2)c1
Problem: Order the entries by their reported inhibition, beginning at the minimum. Please write the labels in the order that was asked for.
Solution: A, D, C, B, E
(A: 0%, D: 1%, C: 5%, B: 8%, E: 22%)

====

target: Focal adhesion kinase 1 (Homo sapiens) (UniProt Q05397); experiment: Inhibition of FAK at 10 uM by HTRF assay relative to control
Sequence (Q05397 2-1052 limits assumed): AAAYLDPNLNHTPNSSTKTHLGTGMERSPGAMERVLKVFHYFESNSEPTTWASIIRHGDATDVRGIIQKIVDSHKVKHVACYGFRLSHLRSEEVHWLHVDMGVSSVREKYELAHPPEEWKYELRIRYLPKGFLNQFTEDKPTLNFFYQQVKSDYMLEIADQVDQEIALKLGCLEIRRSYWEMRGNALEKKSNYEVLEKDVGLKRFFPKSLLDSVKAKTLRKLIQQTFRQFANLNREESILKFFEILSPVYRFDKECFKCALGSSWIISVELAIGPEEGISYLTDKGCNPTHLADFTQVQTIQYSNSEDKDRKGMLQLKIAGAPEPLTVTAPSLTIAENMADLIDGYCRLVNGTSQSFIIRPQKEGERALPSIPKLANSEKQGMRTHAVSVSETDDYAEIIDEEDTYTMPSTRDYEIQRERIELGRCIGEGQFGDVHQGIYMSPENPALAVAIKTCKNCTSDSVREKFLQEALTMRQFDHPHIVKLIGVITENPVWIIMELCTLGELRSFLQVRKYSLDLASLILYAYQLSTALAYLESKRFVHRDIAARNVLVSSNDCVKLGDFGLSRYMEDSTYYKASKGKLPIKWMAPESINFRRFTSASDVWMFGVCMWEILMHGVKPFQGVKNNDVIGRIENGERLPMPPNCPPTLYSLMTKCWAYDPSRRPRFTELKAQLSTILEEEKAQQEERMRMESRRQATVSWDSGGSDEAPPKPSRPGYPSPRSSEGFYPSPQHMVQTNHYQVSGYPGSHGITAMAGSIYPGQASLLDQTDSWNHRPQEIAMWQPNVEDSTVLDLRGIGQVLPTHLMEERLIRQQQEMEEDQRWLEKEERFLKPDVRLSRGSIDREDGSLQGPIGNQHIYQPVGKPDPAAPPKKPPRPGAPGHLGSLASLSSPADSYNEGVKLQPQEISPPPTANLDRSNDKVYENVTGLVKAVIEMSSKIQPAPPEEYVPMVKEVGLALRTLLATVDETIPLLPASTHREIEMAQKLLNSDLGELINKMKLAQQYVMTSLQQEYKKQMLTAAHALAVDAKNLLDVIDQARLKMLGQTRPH
MEASUREMENT_LABEL: inhibition (%)

1 = CN(CCc1ccccn1)C(=O)[C@@H]1CCCN1c1nccc(Nc2ccccc2)n1
2 = CN(C)CC(C)(C)CNC(=O)C1CCN(c2cc(N3CCOCC3)nc(N)n2)CC1
3 = CN(CCCn1ccnc1)C(=O)[C@@H]1CCCN1c1nccc(Nc2ccccc2)n1
4 = Cc1cccc(N(C)c2cc(Nc3cccc(C(=O)N(C)CCc4ccccn4)c3)ncn2)c1
Problem: Thanks in advance: please rank these 4 entries by inhibition, highest to lowest. Please write the labels in the order that was asked for.
Solution: 3, 4, 2, 1

1 = CC(=O)N1CCN(C(=O)c2cccc(Nc3cc(N(C)c4cccc(C)c4)ncn3)c2)CC1
2 = CN(CCc1ccccn1)C(=O)c1cccc(Nc2nccc(Nc3ccc4ncsc4c3)n2)c1
Problem: Hi there! Just curious which has the higher inhibition between 1 and 2 . // return label of chosen record
Solution: 2

I = COc1cccc(Nc2cc(N3CCC[C@H]3C(=O)NCCc3ccc(O)cc3)nc(N)n2)c1
II = COc1cccc(Nc2cc(Nc3cccc(C(=O)N(C)CCc4ccccn4)c3)nc(N)n2)c1
III = O=C(NCc1cccnc1)c1cccc(-c2ccc(Nc3ccc4ncsc4c3)nn2)c1
Problem: Output the entries ranked by inhibition from maximum down to minimum. Please write the labels in the order that was asked for.
Solution: III, II, I

====

biological target: Mitogen-activated protein kinase 8 (Homo sapiens); assay: Inhibition of JNK1 at 10 uM by HTRF assay relative to control
MEASUREMENT_LABEL: inhibition (%)

Here's what some known entries look like.
| COMPOUND | inhibition (%) |
| --- | --- |
| Cc1cccc(Nc2nccc(Nc3cccc(C(=O)N(C)CCc4ccccn4)c3)n2)c1 | 49 |
| Cc1cccc(Nc2cc(Nc3cccc(C(=O)N(CC(C)O)CC(C)O)c3)ncn2)c1 (centres undefined) | 7 |
| Nc1nc(Nc2ccccc2)cc(N2CCC(C(=O)NCCc3ccccn3)CC2)n1 | 0 |

A = Nc1nc(Nc2ccc3ncsc3c2)cc(N2CCC[C@H]2C(=O)NCCc2cccc(I)c2)n1
B = Cc1ccc(CN2CCN(c3nccc(C(C#N)c4ccccn4)n3)CC2)cc1 (centres undefined)
C = O=C(COc1ccccc1)N1CCN(c2nccc(Nc3ccc4ncsc4c3)n2)CC1
Problem: Order the entries by their reported inhibition, beginning at the minimum. Please write the labels in the order that was asked for.
Solution: A, B, C

====

biological target: Tyrosine-protein kinase Lck (Homo sapiens); experiment: Inhibition of Lck at 10 uM by HTRF assay relative to control
MEASUREMENT_LABEL: inhibition (%)

| COMPOUND | TESTED_TARGET | UOM | inhibition |
| --- | --- | --- | --- |
| COC(=O)C(CO)NC(=O)[C@@H]1CCCN1c1nccc(Oc2cccc(C)c2)n1 (stereo not given in full) | Tyrosine-protein kinase Lck (Homo sapiens) | % | 0 |

a = Cc1cccc(Nc2nccc(Nc3cccc(C(=O)N(C)CCc4ccccn4)c3)n2)c1
b = O=C(c1nc(SCc2ccc(Cl)cc2)n2ccccc12)N1CCN(c2ncnc3c2CN(Cc2ccccc2)CC3)CC1
c = Cc1cccc(N(C)c2cc(Nc3cccc(C(=O)NCc4ccncc4)c3)ncn2)c1
d = Cc1cccc(N(C)c2cc(Nc3cccc(C(=O)NCCCn4ccnc4)c3)ncn2)c1
e = O=C(NC[C@@H]1CCCO1)c1cccc(Nc2nccc(Nc3ccc4ncsc4c3)n2)c1
Problem: Order the entries by their reported inhibition, beginning at the minimum. Please write the labels in the order that was asked for.
Solution: b, c, d, a, e
(b: 0%, c: 9%, d: 24%, a: 45%, e: 84%)

====

target: RAC-alpha serine/threonine-protein kinase (Homo sapiens) (UniProt P31749); test: Inhibition of AKT1/PKBalpha at 10 uM by HTRF assay relative to control
Sequence (P31749 whole entry): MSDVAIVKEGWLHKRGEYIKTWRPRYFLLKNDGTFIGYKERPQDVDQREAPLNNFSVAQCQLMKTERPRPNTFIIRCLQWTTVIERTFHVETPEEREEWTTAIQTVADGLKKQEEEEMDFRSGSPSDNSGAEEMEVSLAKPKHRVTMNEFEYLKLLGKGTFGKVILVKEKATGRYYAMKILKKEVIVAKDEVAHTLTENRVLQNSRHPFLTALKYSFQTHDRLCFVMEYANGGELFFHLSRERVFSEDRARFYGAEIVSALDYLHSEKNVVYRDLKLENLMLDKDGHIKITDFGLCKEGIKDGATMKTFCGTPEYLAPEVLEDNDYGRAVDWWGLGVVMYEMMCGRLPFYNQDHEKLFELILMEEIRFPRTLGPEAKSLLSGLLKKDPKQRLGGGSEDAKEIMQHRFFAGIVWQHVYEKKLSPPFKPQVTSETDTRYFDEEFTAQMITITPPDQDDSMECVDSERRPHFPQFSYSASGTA
MEASUREMENT_LABEL: inhibition (%)

Here's what some known entries look like.
| MOLECULE | RESULT_NUMBER |
| --- | --- |
| Cc1cccc(Oc2ccnc(N3CCN(C(=O)c4c(C)noc4C)CC3)n2)c1 | 1 |
| O=C(NCc1ccncc1)c1cccc(Nc2cc(Nc3cccc(Br)c3)ncn2)c1 | 0 |
| COc1cccc(Nc2cc(N3CCC[C@H]3C(=O)NCCc3ccc(O)cc3)nc(N)n2)c1 | 1 |

1 = Cc1cccc(Nc2cc(Nc3cccc(C(=O)N(CC(C)O)CC(C)O)c3)ncn2)c1 (stereo not given)
2 = Cc1cccc(Oc2ccnc(N3CCC[C@H]3C(=O)NCc3cccnc3)n2)c1
3 = COc1cccc(Nc2cc(Nc3cccc(C(=O)NCCCn4ccnc4)c3)nc(N)n2)c1
Problem: Output the entries ranked by inhibition from maximum down to minimum. Please write the labels in the order that was asked for.
Solution: 1, 3, 2
(1: 2%, 3: 1%, 2: 0%)

====

biological target: UniProt:P04629; test: Inhibition of TrkA at 10 uM by HTRF assay relative to control
Sequence (P04629 33-796 limits assumed): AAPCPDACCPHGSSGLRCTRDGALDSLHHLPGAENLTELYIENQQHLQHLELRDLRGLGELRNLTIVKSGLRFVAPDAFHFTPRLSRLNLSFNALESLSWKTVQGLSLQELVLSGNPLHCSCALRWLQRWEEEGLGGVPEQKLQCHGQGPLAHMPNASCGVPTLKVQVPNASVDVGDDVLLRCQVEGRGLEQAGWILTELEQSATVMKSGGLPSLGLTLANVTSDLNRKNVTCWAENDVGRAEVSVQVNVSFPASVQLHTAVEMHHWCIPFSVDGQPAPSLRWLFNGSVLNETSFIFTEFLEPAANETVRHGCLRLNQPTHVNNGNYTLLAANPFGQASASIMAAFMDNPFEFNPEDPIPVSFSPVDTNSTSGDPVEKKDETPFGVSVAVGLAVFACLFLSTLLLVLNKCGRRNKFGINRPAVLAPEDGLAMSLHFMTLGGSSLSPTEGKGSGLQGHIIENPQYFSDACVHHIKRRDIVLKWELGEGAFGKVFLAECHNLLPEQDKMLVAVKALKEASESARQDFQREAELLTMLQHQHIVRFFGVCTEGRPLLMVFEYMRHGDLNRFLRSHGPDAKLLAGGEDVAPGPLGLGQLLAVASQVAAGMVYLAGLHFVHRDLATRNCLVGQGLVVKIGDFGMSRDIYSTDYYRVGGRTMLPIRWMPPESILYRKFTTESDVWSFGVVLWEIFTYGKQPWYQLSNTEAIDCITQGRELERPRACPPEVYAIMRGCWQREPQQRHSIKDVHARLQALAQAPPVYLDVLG
MEASUREMENT_LABEL: inhibition (%)

| STRUCTURE_AS_SMILES | inhibition [%] |
| --- | --- |
| COc1cccc(Nc2cc(Nc3cccc(C(=O)N(C)CCc4ccccn4)c3)nc(N)n2)c1 | 9 |

1 = O=C(NC1Cc2ccccc2C1)c1cccc(Nc2ccnc(N3CCN(c4ccccc4)CC3)n2)c1
2 = O=C(CN1CCN(c2ncnc3c2CN(Cc2ccccc2)CC3)CC1)Nc1cc(F)ccc1F
Problem: Hi there! Just curious which has the higher inhibition between 1 and 2 . // return label of chosen record
Solution: 2
(2: 10%, 1: 5%)

====

molecular target: RAC-alpha serine/threonine-protein kinase (Homo sapiens) (UniProt P31749); assay: Inhibition of AKT1/PKBalpha at 10 uM by HTRF assay relative to control
MEASUREMENT_LABEL: inhibition (%)

Here's what some known entries look like.
| STRUCTURE_AS_SMILES | UOM | RESULT_NUMBER |
| --- | --- | --- |
| O=C(COc1ccccc1)N1CCN(c2nccc(Nc3ccc4ncsc4c3)n2)CC1 | % | 1 |
| CN(CCCn1ccnc1)C(=O)[C@@H]1CCCN1c1nccc(Nc2ccccc2)n1 | % | 0 |
| Cc1cccc(N(C)c2cc(Nc3cccc(C(=O)NCc4ccncc4)c3)ncn2)c1 | % | 0 |

I = O=C(C1CCN(c2nccc(Nc3ccccc3)n2)CC1)N1CC[C@@H](O)C1
II = COc1cccc(Nc2cc(Nc3cccc(C(=O)N(C)CCc4ccccn4)c3)nc(N)n2)c1
Problem: Kindly identify the item with the lower inhibition figure among these two: I and II // return label of chosen record
Solution: I
